meta.source: PubChem BioAssay AID485297

- assay protocol: qHTS Assay for Rab9 Promoter Activators; further: nearly all actives have a fitted effect of over 60% in size
- details: Huh7 Rab9 promoter-luciferase reporter, luminescence, 24 h; series mostly up to 9.22 µM
Screen size: about 320,000 compounds; about 9,100 (2.8%) were called active. Another 3% or so got no clear call; they are omitted. The call rests on the fitted dose curve; in most records, active means well fitted activation curve with a large enough effect; inconclusive means small, poorly fitted or top-dose-only effect; inactive means no such curve, though single readings can be large or run the other way. The entries come from a sample that favours actives as a whole.
Output constraint: value belongs to 1.0 (active), 0.0 (inactive)

Example entries begin here.
molecule	label value
O=C(CN1CCC(O)(c2cccc(C(F)(F)F)c2)CC1)NCCc1ccccc1	0.0
CC1CCCN(S(=O)(=O)c2ccc(C(=O)Nc3nnc(-c4ccncc4)o3)cc2)C1 (stereo unspecified)	1.0
O=C(CN1CCN(S(=O)(=O)c2cccc(Cl)c2)CC1)N1CCCCC1	0.0
CN(C)c1ccc(-c2nnc(-c3cccnc3)o2)cc1	1.0
COc1cc(CC(=O)NCc2cccs2)cc(OC)c1OC	0.0
Cc1cc(Cl)c2oc(C(=O)N3CCC(O)(c4ccccc4)CC3)c(C)c2c1	0.0
COc1ccccc1CC(=O)Nc1ccc(F)cc1F	0.0
O=S(=O)(Nc1cc(Cl)ccc1N1CCOCC1)c1ccccc1Cl	0.0

Recorded call for `O=C(/C=C/c1ccccc1[N+](=O)[O-])OCC(=O)N1CCCC1` ?
0.0

Input `C(=N\Nc1ccc2ccccc2n1)/c1ccc2c(c1)OCO2`
1.0

Input `CSc1ccccc1NC(=O)COC(=O)CCCOc1ccc(C)cc1`
0.0

Input `Cc1ccc(NC(=O)c2cccs2)cc1S(=O)(=O)N(C)C`
0.0

Input `CCCNC(=O)c1ccc(Cl)c(Cl)c1`
0.0

Input `Cc1ccc(CC(=O)Nc2ccc(S(=O)(=O)N3CCOCC3)cc2)cc1C`
0.0

Input `Cc1cc(NS(=O)(=O)c2ccc(NC(=O)c3cccnc3)cc2)nc(C)n1`
0.0

Input `Cn1c(N)c(C(=O)COC(=O)COc2ccc(Cl)cc2)c(=O)n(C)c1=O`
0.0

Input CCc1ccc(CN(C)C(C)C(=O)Nc2ccc(S(=O)(=O)N3CCCC3)cc2)cc1 (stereo unspecified)
0.0

Input `CC(=O)Nc1ccc(-c2nc3ccccc3o2)cc1`
1.0

Input `COC(=O)CSc1nnc(-c2cccnc2)o1`
0.0

Input COc1cc(C(C)=O)ccc1OC(C)C(=O)Nc1ccc(S(=O)(=O)N2CCCC2)cc1 (stereo unspecified)
0.0
